Data origin, for the record: the supplement of paper PMC11451515

Test system: NOMO1
Method Notes: cell viability relative to DMSO control; higher = less cytotoxic
Experimental Setup: RPMI 5 mM glucose + 10% dialyzed FBS; 48 h; 0.00702 µM
For each of the compounds below, state its cell viability.
Answer format: value, then unit.

Dear colleague, please send me the reported cell viability for Cn1c(CNc2ccc(C(=N)N)cc2)nc2cc(C(=O)N(CCC(=O)O)c3ccccn3)ccc21 when you can.
95.9%

Look up and report measured cell viability for this entry: CC(=O)N[C@H]1[C@H](O[C@@H]2c3ccc(c(Cl)c3)Oc3cc4cc(c3O[C@@H]3O[C@H](CO)[C@@H](O)[C@H](O)[C@H]3NC(=O)CCCCCCCC(C)C)Oc3ccc(cc3Cl)C[C@H]3NC(=O)[C@H](N)c5ccc(O)c(c5)Oc5cc(O)cc(c5)[C@H](NC3=O)C(=O)N[C@H]4C(=O)N[C@H]3C(=O)N[C@@H]2C(=O)N[C@@H](C(=O)O)c2cc(O)cc(O[C@H]4O[C@H](CO)[C@@H](O)[C@H](O)[C@@H]4O)c2-c2cc3ccc2O)O[C@H](CO)[C@@H](O)[C@@H]1O
123%

Please supply the value of reported cell viability for the item FC(F)c1nc2ccccc2n1-c1nc(N2CCOCC2)nc(N2CCOCC2)n1
97.1%

For the compound CCC(C)(C)c1ccc(CC(C)CN2C[C@@H](C)O[C@@H](C)C2)cc1 (stereo not given in full) , give its measured cell viability value.
78.8%

Read off the recorded cell viability for COc1cc2ncnc(Nc3cc(Br)c(O)c(Br)c3)c2cc1OC
99.3%

* * *

System: NOMO1
Method Notes: cell viability relative to DMSO control; higher = less cytotoxic
Experimental Setup: RPMI 5 mM glucose + 10% FBS; 48 h; 1.71 µM
Measurement Type: cell viability (%)
Please state the figure in %; there is no need to write the unit.

State cell viability on NOMO1. Entry: C/C=C1\C2C=C(C)CC1(N)c1ccc(=O)[nH]c1C2 (stereo not drawn)
105

Check NOMO1 data and give cell viability for CNC1CCC(N(Cc2cccc(-c3ccncc3)c2)C(=O)c2sc3c(F)ccc(F)c3c2Cl)CC1 (stereo not drawn) .
105

Provide cell viability, tested on NOMO1, for CC/1=C(/N2[C@H](SC1)[C@H](NC(=O)[C@H](N)\C3=C\C\C=C/C3)C2=O)C(O)=O .
117

Specify the recorded cell viability for CCn1c(-c2nonc2N)nc2cnc(Oc3cccc(NC(=O)c4ccc(OCCN5CCOCC5)cc4)c3)cc21 , system: NOMO1.
93.8

Enter cell viability (test system NOMO1) for CC(N)C12CC3CC(CC(C3)C1)C2 (stereo not drawn)
112

Look up NOMO1 data: cell viability of Cn1c(CNc2ccc(C(=N)N)cc2)nc2cc(C(=O)N(CCC(=O)O)c3ccccn3)ccc21 , then report it.
109

Tell me its cell viability on NOMO1: Cc1[nH]c2ccccc2c1CCNCc1ccc(/C=C/C(=O)NO)cc1
10.9

Print NOMO1 cell viability for C/C=C(/C)C(=O)O[C@H]1C(C)=C[C@]23C(=O)[C@@H](C=C(CO)[C@@H](O)[C@]12O)[C@H]1[C@@H](C[C@H]3C)C1(C)C .
65.9

Provide cell viability, system NOMO1, entry CCC(C)(C)c1ccc(CC(C)CN2C[C@@H](C)O[C@@H](C)C2)cc1 (stereo partly drawn)
82.3

Recall the reported cell viability of O=C(Nc1cc2cc[nH]c2cn1)c1ccccc1 when tested on NOMO1.
88.4

# lookup: NOMO1 cell viability, key = COc1cc2c(cc1OC)CC(=O)N(CCCN(C)C[C@H]1Cc3cc(OC)c(OC)cc31)CC2.Cl
99.6

Give reported cell viability for C[C@@H]\1CC(=O)N\N=C1C2=CC=C(NN=C(C#N)C#N)C=C2 (NOMO1)
97.5

Find cell viability for CN1CCN(c2ccc([N+](=O)[O-])c3no[n+]([O-])c23)CC1 on NOMO1 and write it down.
85.1
